# target: T1, SARS-CoV-2 spike trimer S (Wuhan, SmT1) (SARS-CoV-2 Wuhan)
# T1 construct: extracellular domain
# experiment.summary: SPR, antigen on chip
readout.name: koff (s⁻¹)
Supply the numeric figure in s⁻¹, leaving out any unit text.

These recorded examples may help you get a feel for the data.
NRCoV2-11 VHH (VHH) VHH: EVQLVSSGGGLVQPGGSLRLSCAASGSSLDSYSVSWFRQAPGKEREWISFISRYYSSTYYTDSVKGRFTTSRDGDQKTVHLQMNSLKPEDTAVYYCAARSRDFSSPFSATDTYTSWGQGTQVTVSS
4.73e-05
NRCoV2-03 VHH (VHH) VHH: EVQLVSSGGGLVQAGGSLRLSCTASGITFSYYAMGWYRQAPGQPRELVASMSNMDSTIYADSVKGRFTISRDNAKTTIYLQMNNLKPEDTAVYFCNIYGPTYSTRRNEYWGQGTQVTVSS
0.000334
NRCoV2-15 VHH (VHH) VHH: EVQLVSSGGGLVEAGGSLRLSCIASGSTSGRNTMGWFRQAPGKQREWVAIVSTSGATNYAGSVKGRFTLSRDNAKNAVYLQMNNLKPEDTAVYYCYAAYGGGGDYWGQGTQVTVSS
0.000221
NRCoV2-10 VHH (VHH) VHH: QLQLQESGGGLVQPGGSLTLSCAASGNTFSRSNMHWYRQAPGAQREWVAAISSRGISTYAYSAKGRFTISRDNAKNTVSLQMNSLKPEDTAVYYCYAADDLGDYWGQGTQVTVSS
9.27e-05
NRCoV2-18 VHH (VHH) VHH: EVQLVESGGGLVQAGGSLRLSCVASGITISGYNMAWWRQTRGKQTERVAFINSGGSTTYSDSVKGRFTISRDNGKNTAYLQMNSLNAEDTADYFCSLHTSHDYWGQGTQVTVSS
0.000152
NRCoV2-SR02 VHH (VHH) VHH: EVQLVDSGGGLVQAGGSLRLSCTASEFTLNYYSIGWFRQSPGKEREGVSCIRYSGGGIDYADSVKGRFTISRDNAKNTVYLTMNSLKPEDTAVYYCAADRLYSRACPTAGGRNYWGQGTQVTVSS
0.000571
NRCoV2-02 VHH (VHH) VHH: EVQLVESGGGLVQAGGSLRLSCAASGFTFSNYAMNWVRQAPGKGLEWVSGISGRGDDTRYADSVKGRFTISRDNAKNTLFLQMRSLRPEDTGVYRCTKGPDLYYFGSGYSDRGQGTQVTVSS
0.00141

I would be grateful if you could share the reported koff for NRCoV2-17 VHH (VHH) VHH: EVQLQQSGGGLVQTGGSLRLSCAAAGSPFSQLAMSWYRQISGKERAWVASISPTGNRSYSKIAKGRFTISRDNAKNTVTLQMTSLKPEDTAAYICQAANVNGGDYWGQGTQVTVSS .
9.79e-05
